Hi there, I'd appreciate the recorded z-score for every entry that follows.
# experimental.system: NADPH oxidase 2 (Homo sapiens) (UniProt P04839)
# Sequence (P04839 whole entry, looked up): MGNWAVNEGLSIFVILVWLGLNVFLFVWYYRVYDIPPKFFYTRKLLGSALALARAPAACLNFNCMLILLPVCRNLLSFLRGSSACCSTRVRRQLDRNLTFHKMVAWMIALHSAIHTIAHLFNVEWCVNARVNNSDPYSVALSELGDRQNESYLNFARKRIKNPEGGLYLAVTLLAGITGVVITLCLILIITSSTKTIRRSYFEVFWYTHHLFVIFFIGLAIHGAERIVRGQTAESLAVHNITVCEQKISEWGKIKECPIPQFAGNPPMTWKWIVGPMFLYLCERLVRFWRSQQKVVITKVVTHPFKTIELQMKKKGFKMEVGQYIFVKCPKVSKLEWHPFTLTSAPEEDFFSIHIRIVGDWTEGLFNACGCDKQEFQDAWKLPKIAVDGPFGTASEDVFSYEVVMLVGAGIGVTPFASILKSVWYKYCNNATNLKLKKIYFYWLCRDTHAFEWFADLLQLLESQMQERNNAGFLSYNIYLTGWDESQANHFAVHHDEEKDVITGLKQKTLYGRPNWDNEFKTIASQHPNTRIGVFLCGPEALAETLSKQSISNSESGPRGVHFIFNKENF
# procedure.summary: NOX2-dependent H2O2 signal modulators, primary screen, NOX inhibitor project, cell-based, HEK293-NOX2, PMA-stimulated, Amplex Red fluorescence (AID 1159); further: test concentration not given here
# measurement.context: 45 min, higher = more signal, called active from +8 up or from −8 down
Answer as a number with no unit attached.

Please give the measured z-score for this compound: `C=C(/C(=C/C[C@H](OC(C)=O)c1ccccc1OCCO)c1cc(C(=O)OC)ccc1OC)C(C)C`
0.137

What value of z-score has been recorded for this entry: `COC(=O)[C@@]1(Cc2ccc(OC)cc2)[C@H]2c3cc(C(=O)N(C)C)n(C[C@H](O)CO)c3C[C@H]2CN1C(=O)c1ccccc1`
0.452

Form field: reported z-score of `COCCOC(=O)N1C(=O)[C@@]2(c3cc(C#CC4(O)CCCCCC4)ccc31)[C@H](c1ccc(O)cc1)N1[C@H](c3ccccc3)[C@H](c3ccccc3)OC(=O)[C@H]1[C@@H]2C(=O)NC[C@H](O)c1ccccc1`
1.97

For the compound shown here, `CN(C)C(=O)[C@@]1(Cc2ccccc2CN=[N+]=[N-])N=C(c2ccc(OCCCO)cc2)O[C@H]1c1ccccc1CN=[N+]=[N-]` , give the reported z-score.
-0.379

Which measured z-score value corresponds to `CCOC(=O)c1ccc(NC(=O)O[C@H]2[C@H](OC(=O)Nc3ccc4c(c3)OCO4)[C@@H](OC(=O)Nc3ccc4c(c3)OCO4)[C@@H](OC)O[C@@H]2CO)cc1` ?
-3.35

# get_value(readout='z-score', item= `CCCNC(=O)[C@@]1(c2ccc([N+](=O)[O-])cc2)CC(=O)N(C2CCCCC2)[C@@H]1c1ccc(CO)cc1` )
0.325

Please look up its z-score: `C=CCN1Cc2ccccc2[C@H]2OC(c3ccc(OCCCO)cc3)=N[C@@]2(CC=C)C1=O`
-1.66

# get_value(readout='z-score', item= `CCOC(=O)C[C@H]1[C@H](OC(=O)c2ccccc2-c2ccccc2)[C@@H](NC(=O)C2CCCCC2)c2cc(OCCCO)ccc2N1C(=O)Cc1ccc(OC)cc1` )
0.0588

z-score lookup needed for `O=C(NCC(F)(F)F)[C@@H]1c2ccccc2C(=O)N(Cc2ccccc2C(F)(F)F)[C@H]1c1ccc(CO)cc1` , thanks.
0.536

Consider the compound `COC(=O)c1c(CC[C@@H](CO)NC(=O)N[C@H](Cn2cc(C3(O)CCCCC3)nn2)C(C)C)oc(C(C)=O)c1C(=O)OC` and give its measured z-score.
-3.25

Give its z-score value. Item: `CC(C)C[C@@H]1NC(=O)[C@@H]2C[C@H](C(=O)NCCCCN(C)C)[C@H](c3cccc(OCCO)c3)N2C1=O`
1.46

Need z-score of `NC(N)=NCCCn1cc(CNC(=O)[C@@H](N)Cc2ccccc2)nn1` , thanks.
-2

Looking for the measured z-score of C=CCC(OC(C)=O)[C@@H]1[C@@H](N(Cc2cc3ccccc3o2)C(=O)c2ccc(-c3ccccc3)cc2)c2cc(OCCCO)ccc2N1C(=O)c1ccc2ccccc2c1 (some centres undefined) , can you help?
-1.08

What value of z-score has been recorded for this entry: `O=C(NCc1ccccc1)[C@@H]1c2ccccc2C(=O)N(Cc2ccccc2C(F)(F)F)[C@H]1c1ccc(CO)cc1`
-1.13
